Test system: glycogen synthase kinase-3 (GSK3A per assay name; protocol says GSK3B)
EXPERIMENTAL_PROTOCOL: compounds binding glycogen synthase kinase-3 – biochemical, small-molecule microarray, 635 nm fluorescence, GSK3A, primary screen (AID 1103); also: the record names both GSK3A and GSK3B
COND: fluorescence 635 nm, higher = more signal
REPORTED_PROPERTY: composite z-score
When you answer, write just the number.

The examples below pair each entry with its known result.
COMPOUND: C=CC[C@@]1(C(=O)N(C)C)N=C(c2ccc(OCCCO)cc2)O[C@@H]1c1ccccc1CN=[N+]=[N-]
SUBJECT_OF_TEST: glycogen synthase kinase-3 (GSK3A per assay name; protocol says GSK3B)
MEASURED: 1.33

COMPOUND: COc1ccc(C(O)C2C=CC3C(=O)N(C)C(=O)C3N2N(c2ccccc2)c2ccccc2)cc1 (stereo unspecified)
SUBJECT_OF_TEST: glycogen synthase kinase-3 (GSK3A per assay name; protocol says GSK3B)
MEASURED: 0.243

COMPOUND: CC(=O)c1ccc(C(O)C2C=CC3C(=O)N(c4ccccc4)C(=O)C3N2Nc2ccc(C(C)C)cc2)cc1 (stereo unspecified)
SUBJECT_OF_TEST: glycogen synthase kinase-3 (GSK3A per assay name; protocol says GSK3B)
MEASURED: 0.806

COMPOUND: N#Cc1ccc(C(O)C2C=CC3C(=O)NC(=O)C3N2Nc2ccc(Cl)cc2Cl)cc1 (stereo unspecified)
SUBJECT_OF_TEST: glycogen synthase kinase-3 (GSK3A per assay name; protocol says GSK3B)
MEASURED: -0.344

COMPOUND: CCOC(=O)C1=C[C@@H](C(C)(C)C)N(S(=O)(=O)c2ccc(C)cc2)[C@H]1c1ccc(C#N)cc1
SUBJECT_OF_TEST: glycogen synthase kinase-3 (GSK3A per assay name; protocol says GSK3B)
MEASURED: 1.11

COMPOUND: CN1C(=O)C2C(C1=O)C1C=C(CCCO)C2C(C2CC2)N1Cc1cccc(OC(F)(F)F)c1 (stereo unspecified)
SUBJECT_OF_TEST: glycogen synthase kinase-3 (GSK3A per assay name; protocol says GSK3B)
MEASURED: 0.393

stdin: Write down composite z-score measured for item CC(C)C(CO)N1C(=O)[C@@H]2C3C(=O)OCCC/C=C\[C@H]3OC23C=CCN(Cc2ccccc2)C(=O)[C@@H]13 (stereo partly specified)
stdout: -0.54

stdin: Item C=CC[C@@]1(C(=O)OC)N=C(c2ccc(OCCCO)cc2)O[C@@H]1c1ccccc1N=[N+]=[N-] : provide composite z-score
stdout: 1.32

stdin: For C=CCN1C(=O)[C@]2(O[C@H](CCn3cc([C@H](O)c4ccccc4)nn3)[C@@H]([Si](C)(C)c3ccc(OC)cc3)[C@@H]2C)c2cc(NC(=O)c3ccc(OC)cc3)ccc21 , write its composite z-score.
stdout: -0.131

stdin: Dear colleague, please send me the reported composite z-score for NC(=O)NCC#Cc1ccc2c(c1)[C@]1(C(=O)N2)[C@H](c2ccc(OCCO)cc2)N2[C@H](c3ccccc3)[C@H](c3ccccc3)OC(=O)[C@H]2[C@@H]1C(=O)NC[C@H](O)c1ccccc1 when you can.
stdout: -0.708

stdin: Dear colleague, please send me the reported composite z-score for C=C(CCCC)/C(=C/C[C@H](OC(C)=O)c1cccc(OCCO)c1)c1cnc2ccccc2c1 when you can.
stdout: -0.31

stdin: Respond only with composite z-score recorded for CCOC(=O)C1=CC[C@@H](c2ccccc2)N(S(=O)(=O)c2ccc(C)cc2)[C@H]1c1ccccc1I
stdout: 0.698

stdin: Return composite z-score (reported value) for this compound: CN(C)CCCC[C@@H]1NC(=O)[C@@H]2C[C@H](C(=O)NCCCCCCNC(=O)CS)[C@H](c3ccc(O)cc3)N2C1=O
stdout: 1.24

stdin: # return recorded composite z-score for entry O=C1O[C@H](Cc2ccccc2)[C@@H]2[C@H]3C=CCCC=C3CN2[C@H]1Cc1ccc(O)cc1
stdout: -1.16

stdin: State, in one line, measured composite z-score of COC(=O)C[C@H]1O[C@@]2(C[C@@H]1[Si](C)(C)C)C(=O)N(C)c1ccccc12
stdout: 0.59

stdin: Give the reported composite z-score for this compound. CN(C)C(=O)[C@]1(Cc2ccccc2)N=C(c2ccc(OCCCO)cc2)O[C@@H]1c1ccccc1CN=[N+]=[N-]
stdout: 1.33
